test system: P. yoelii; assay: Mouse 4-day suppressive test vs P. yoelii; assay type: in vivo; details: Plasmodium yoelii, P. yoelii YM strain, 7 oral doses in 4 days, CD1 mice, parasitaemia day 5
Entries and their ED50

Smi	ED50 [mg/kg]
Cc1cc(=O)c(-c2ccc(-c3ccc(Cl)cc3)cc2)c(C)[nH]1	1.6
Cc1[nH]c(C)c(-c2ccc(-c3ccc(Cl)cc3)cc2)c(=O)c1Cl	0.6
Cc1[nH]c(C)c(-c2ccc(Oc3ccc(OC(F)(F)F)cc3)cc2)c(=O)c1Br	0.34
Cc1[nH]c(C)c(-c2ccc(Oc3ccc(C(F)(F)F)cc3)cc2)c(=O)c1Br	0.26
Cc1[nH]c(C)c(-c2ccc(Oc3ccc(OC(F)(F)F)cc3)cc2)c(=O)c1Cl	0.19
Cc1[nH]c(C)c(-c2ccc(-c3ccc(Cl)cc3)cc2)c(=O)c1Br	1.4
Cc1cc(=O)c(-c2ccc(Oc3ccc(C(F)(F)F)cc3)cc2)c(C)[nH]1	1.25
Cc1c(Br)c(=O)c(-c2ccc(Cl)cc2)c(C)n1C	16.4
Cc1[nH]c(C)c(-c2ccc(Oc3ccc(Cl)cc3)cc2)c(=O)c1Cl	1.6
Cc1cc(=O)c(-c2ccc(Oc3ccc(Cl)cc3)cc2)c(C)[nH]1	2.5
Cc1[nH]c(C)c(-c2ccc(Oc3ccc(Cl)cc3)cc2)c(=O)c1Br	0.7
